Catalogue of apparent KD of MS2 coat protein readings, one per entry.
# Tested on: MS2 coat protein
# protocol.description: apparent KD of MS2 coat protein; higher = weaker reporter binding
# condition.details: Eterna round: R107; input ligand: arginine 13.2 mM
test.readout: apparent KD of MS2 coat protein (nM)

biopolymer.sequence	assay.result
GUCAGUAGAACAGAUACCAGUCAAAGGCUGUGAUCUCAUAACAUGAGGAUCACCCAUGUUGACCCUUGGCAGCUGUGGGCGAGGG [#20 Exclusion-TheophyllineB]	26
CCUCAGCAAUUGGAUACCAGUACAUCGUAAGACAUGAGGAUCACCCAUGUGGGCUUGACAUACCCUUGGCAGCCAUCCUUGAUCC [theeternabot_sameState_MS2_Theo_B_3]	101
GCACCAGGUACGGAUACCAGAGCAAGCCAAAUGAGUGAACAUGAGGAUCACCCAUGUUUGCUCCCUUGGCAGCCGUACCUGGUGC [ETB NP+V+V2 #11 +-Same Structure]	7.91
AGCGCUGUGCAUGAUACCAGCUACAUGAGGAUCACCCAUGUGCGUCAGAAAUGACUGUGUAGCCCUUGGCAGCAUAAAGCAUGUA [Exclusion - Theophylline B (Freestyle 8)]	19.7
GAUGAUAUUGCAGAUACCAGACACAUGAGGAUCACCCAUGUCGCUGGGUUACUGGAUCGUGUCCCUUGGCAGCUGCGAUAUCAUC [Austria]	69.7
ACGUCCAGGUUAAUCGUGGGCAUGGUCGAUACCAGUAUUUUAAUCUACCCUUGGCAGCGACAUGAGGAUCACCCAUGUGCGAUGA [XTheo A #16]	13.8

====

# System: MS2 coat protein
# protocol.description: apparent KD of MS2 coat protein, switch ON state; designed switch direction (-1 OFF switch, 1 ON switch): 1; higher = weaker reporter binding
# condition.details: FMN input: 0 or 200 uM; Eterna round: R93 (includes R88 designs)
Each entry falls into one class according to its apparent KD of MS2 coat protein; the ranges are Low: < 0.02 µM; Medium: ≥ 0.02 µM and < 0.03 µM; High: ≥ 0.03 µM

biopolymer.sequence	answer.label
GAAAAACAUGAGGAUCACCCAUGUGGAAAUAUGGAAGGAUAUACAAAGACGAGAGUCAAAGUAGAAGGUCUAAAAG [Mat - Same State 1 - Eli mod - D20]	Low
AAAUAAAUGACUAAGGAUAUAUCAGAAAAAACAUGAGGAUCACCCAUGUAAUAAUAAAAAGGGUGAUAGAAGGUAGUCAACAAAC [74%, More Paria 4]	Medium
AAAAGACAUGAGGAUCACCCAUGUGAAAACGUGCGAGGAUAUGUGUGGAAACCGUACUAUACAGAAGGCGCGUGUC [SS1 - 84]	Medium
CGGCUACAUGAGGAUCACCCAUGUCAGCCGAGGGCAGGAUAUGCGGUUCAUUCUCAAGCAGCAGAAGGGUCAAAAG [Onmabiat]	Low
AAAUAACAUGAGGAUCACCCAUGUUGCAACGGUAGAGGAUAUGUGGGUGAAAAUAGCAUGGCAGAAGGCUAGUGUA [SameState1 Malc#28]	High
AUAUAAAUAAGCUAGGAUAUACUAAAGUAAACAUGAGGAUCACCCAUGUGAAGAAAGAAACUCAUGUAGAAGGAGCAUAUAUAUA [viburnum 3]	High
AAGAAACAUGAGGAUCACCCAUGUAAGAUAAACACAGGAUAUGCAAAAGAAAGAAAGAAAGCAGAAGGGUGAAGAA [Mat - Same State 1 - Tesla mod - 50]	Low
UGCCAAUUGGCACAGGAUAUGAGCAUGCUCACAUGAGGAUCACCCAUGUGAUUACCAACGCAAUAUCAGAAGGGUGCCCUCGUCA [Relageor]	High
AACGAACAUGAGGAUCACCCAUGUUCCAGCAGUUGAGGAUAUGUGGGUGAAAAUAGCACGGCAGAAGGCGAGUGUA [SameState1 Malc#22]	High
AUAAGACAUGAGGAUCACCCAUGUAUAAGAGCAUGAGGAUAUAUGAAAAGUAAUAGGAGGAUAGAAGGCAUGGUUG [JR_SS001_Sub1219]	High
AAAUAAAGGACUGAGGAUAUACCACAUGAAACAUGAGGAUCACCCAUGUAGAAAUACAAGCGGUGGUAGAAGGCAGUCCACAAAC [Same State 2.5i ( so lets mod hyphema)]	Medium
AAAAAACAUGAGGAUCACCCAUGUGCAAAAUUCGCAGGAUAUUCCUCAAUUAAAUGAGAGGAAGAAGGGUGAAAAA [Nob's Hobby 26 - Jieux - Same State 1]	Medium
GAAAAACAUGAGGAUCACCCAUGUGAAAAUAUGGGAGGAUAUACGAAGUCGAAAGUCAAAGUAGAAGGCCUAAAAG [Garnet 32]	High
AUAAAACAUGAGGAUCACCCAUGUCCGACAAAUCAAGGAUAUGAGAGCAAAACCAGGCUGUUAGAAGGUGAAAGAA [Atlausa]	High
AGAUCUAGAAGGUAGGAUAUGUGAAAAAAUACAUGAGGAUCACCCAUGUGAUGAAUAAAAAGAAAAUAGAAGGACCAUCUAGAUC [Cross swing 2]	Low
GACAAACAUGAGGAUCACCCAUGUAGAAAUAUGGGAGGAUAUACACAGACGAAAGUCAAAGUAGAAGGCCUACAAG [77%, Mat - Mod of Eli - With 3 more C's]	Medium
AGAAAAGAAAGUAAGGAUAUGCAUAAUAAAACAUGAGGAUCACCCAUGUUAAAAAAAAGAUCAUGGUAGAAGGUACAAAAGAAAG [SS2 M 36]	Low
AGAAAUAAACCUCAGGAUAUGGGUAAAUAAACAUGAGGAUCACCCAUGUAAAAGAAAAUAAAAAACCAGAAGGGAGAAAAUAAGA [Designing denovo 1]	Low
AGAAAUAAAAGAGAGGAUAUUCAAAAGAAAACAUGAGGAUCACCCAUGUAAAAGAAAAUAAAUGGGAAGAAGGCUCAAAAUAAAG [Modifying JL's highscorer - Moving the G segment - Variant 2]	Medium
AAAAAACAUGAGGAUCACCCAUGUCAAAAGACGUGAGGAUAUGUACAGACUUCGGUCUGUACAGAAGGCACAAAAA [SS1 - 1031]	Low
GAGAGACAUGAGGAUCACCCAUGUAGGAUUAUGGGAGGAUAUACAAAGACGAGAGUCAGAGUAGAAGGCCUAGGAG [salish99-ss1-139]	Medium
AAGAAAGAAACAUAGGAUAUCAAGGAUAUAACAUGAGGAUCACCCAUGUAAAUACGAAAGUAUAAUGAGAAGGAUGGAUGAUCUAC [Meechl MS2 SS2 3]	High
AAAGAAUGAAGGCAGGAUAUGUGAAAAAAAACAUGAGGAUCACCCAUGUAAUAGAUGGUGAAAAGGCAGAAGGGCCAAGAAACAA [SS 2 Tesla 6]	Low

====

Each item that follows carries a reported apparent KD of MS2 coat protein.
# Tested on: MS2 coat protein
# protocol.description: apparent KD of MS2 coat protein; higher = weaker reporter binding
# condition.details: Eterna round: R107; input ligand: tryptophan 2.4 mM

biopolymer.sequence	apparent KD of MS2 coat protein / nM
AAAACACAUGAGGAUCACCCAUGUCAUGAUACCAGUCCACAUGAGGACCCUUGGCAGCAUAAAAUGGGUAACAUGAGGAUAACCC [AstrosEXyTheA#4]	23.4
ACCUGUACGAAAAGUGCAGGACAUGGUAAACGAGGACCGGUACGGCCGCCACUCGAAGAAAACAAGUGGAUCACCCUUGUCCAUG [TrypAS 4 #AlternativeMS2 #Zipper #StaticStem]	1350
GCACCAGGUACGGAUACCAGCUGCCCGAGAUACAUGAGGAUCACCCAUGUGACCUGGUUUAGCCCUUGGCAGCUGUACCUGGUGC [#14 Same State - Theophylline B]	14.3

====

# Tested on: MS2 coat protein
# protocol.description: apparent KD of MS2 coat protein; designed switch direction (-1 OFF switch, 1 ON switch): 1; higher = weaker reporter binding
# condition.details: input ligand: none
Decide using apparent KD of MS2 coat protein: a value greater than or equal to 700 nM is Condition met, a smaller one is Condition not met.

biopolymer.sequence	answer.label
GCGAGCGUACUUGCAGACAUGAGGAUCACCCAUGUAACUGGACAGGAUAUGGUACCGUUUCGGUACCAGAAGGGUUUACUCAUG [JL SSNG3 3.57] (Eterna round: R96, puzzle: Same State NG 3)	Condition not met
UGACAAGUGGUAGGAUAUCCAUGACAUGAGGAUCACCCAUGUUCUUUUGGUGUCCGUCACGGACGGGAGAAGGACCAACAUGAG [Same State NG2 S3] (Eterna round: R96, puzzle: Same State NG 2)	Condition not met
AAGGUGCAGGUACAGGAUAUGUUGCUCGUAACAUGAGGAUCACCCAUGUACCUAUGAGAUUAAAUGCAGAAGGGUGCACACCAAA [Mat - Same State 2 - Mod of UCT - D91] (Eterna round: R96, puzzle: Same State 2)	Condition met
CACCAGAGAGCAGGAUAUGGGCCACGGCCUAAGGGCUGUGAACUCACAUGAGGAUCACCCAUGUCCCAGAAGGGCUCCUGGCUA [Getiised] (Eterna round: R96, puzzle: Same State NG 2)	Condition met
AAACGGUCGCUGCGGCAACCACAUGAGGAUCACCCAUGUACAUAGGAUAUCGCCUAAAAUACUGGCGAGAAGGGUGAUUAAAGA [Onbiriza] (Eterna round: R96, puzzle: Same State NG 3)	Condition not met
GCGAGCGUACUUGCAGACAUGAGGAUCACCCAUGUAACUGGACAGGAUAUGGUACCGUUUCGGUACCAGAAGGGUUUAUCAUGU [JL SSNG3 3.55] (Eterna round: R96, puzzle: Same State NG 3)	Condition not met
GCUAGUAAAAUUGUCAACAUGAGGAUCACCCAUGUAUGUUGGCAGGAUAUCGUUUGCAAAGCAAACGAGAAGGGCUAAACUAGC [Mat - Same State NG 3 - JL Mod - D12] (Eterna round: R96, puzzle: Same State NG 3)	Condition not met
GGACGUCAUCUCAAUAAUUAAACAUGAGGAUCACCCAUGUCACAGGAUAUGGAUCCUAAUUGGAUCCAGAAGGGUGUGACGUCC [Fiskers NG3ss - 40] (Eterna round: R96, puzzle: Same State NG 3)	Condition not met
AGAUAUCCACGACAUGAGGAUCACCCAUGUUGCUACGACAUGGAGGAUAUUCACGAUACACCUGUGAAGAAGGCUAAGGAUAUU [Eternabot solution 16] (Eterna round: R96, puzzle: Same State NG 3)	Condition met

This collection of values is drawn from the supplement of paper PMC9170038.
